Test: Cytotoxicity against African green monkey Vero cells measured after 48 hrs
Assay type: cell-based
Conditions: chlorocebus sabaeus, read-out: TC50
quantity-kind: CC50 at 48 h
Write the numeric value and append its unit.

Look up CC50 at 48 h for this compound: Cc1ccc2c(c1C)C1=CC[C@@H]3[C@@]4(C)CC[C@@H](O)[C@](C)(CO)[C@@H]4CC[C@@]3(C)[C@]1(C)CC2
5.34 µM

Look up CC50 at 48 h for this compound: CC1=C2C3=CC[C@@H]4[C@@]5(C)CC[C@@H](O)[C@](C)(CO)[C@@H]5CC[C@@]4(C)[C@]3(C)CC[C@]23CC[C@@]1(C)OO3
33.3 µM

Look up CC50 at 48 h for this compound: Cc1ccc2c(c1C)C1=CC[C@@H]3[C@@]4(C)C[C@@H](O)[C@H](O)[C@@](C)(CO)[C@@H]4CC[C@@]3(C)[C@]1(C)CC2
1.78 µM

* * *

What pIC50 was measured for each of the following?
System: Influenza A virus
Assay: Antiviral activity against Influenza A virus A/95-359 infected in MDCK cells assessed as inhibition of virus-induced cytopathic effect
Format: functional, organism-based
Details: A/95-359, MDCK
pIC50: −log10 of the molar value.

Look up pIC50 for this molecule: Cc1ccc2c(c1C)C1=CC[C@@H]3[C@@]4(C)C[C@@H](O)[C@@H](O)[C@](C)(CO)[C@@H]4CC[C@@]3(C)[C@]1(C)CC2
< 5.43

Look up pIC50 for this molecule: CCOC(=O)C1=C[C@@H](OC(CC)CC)[C@H](NC(C)=O)[C@@H](N)C1 [OSELTAMIVIR]
5.79

Look up pIC50 for this molecule: CC1=C2C3=CC[C@@H]4[C@@]5(C)C[C@@H](O)[C@@H](O)[C@@](C)(CO)[C@@H]5CC[C@@]4(C)[C@]3(C)CC[C@@]23CC[C@]1(C)OO3
< 4.48

Look up pIC50 for this molecule: Cc1ccc2c(c1C)C1=CC[C@@H]3[C@@]4(C)CC[C@@H](O)[C@](C)(CO)[C@@H]4CC[C@@]3(C)[C@]1(C)CC2
< 4.95

Look up pIC50 for this molecule: Cc1ccc2c(c1C)C1=CC[C@@H]3[C@@]4(C)C[C@@H](O)[C@H](O)[C@@](C)(CO)[C@@H]4CC[C@@]3(C)[C@]1(C)CC2
5.91

Look up pIC50 for this molecule: CC1=C2C3=CC[C@@H]4[C@@]5(C)CC[C@@H](O)[C@](C)(CO)[C@@H]5CC[C@@]4(C)[C@]3(C)CC[C@]23CC[C@@]1(C)OO3
< 4.95

* * *

Assay: Selectivity index, ratio of TC50 for MDCK cells to IC50 for Influenza A virus A/95-359 infected in MDCK cells
Type: toxicity, cell-based
Details: dog, read-out: Selectivity Index
quantity-kind: selectivity ratio
The answer should be written as a number, with no unit following it.

Look up selectivity ratio for this molecule: Cc1ccc2c(c1C)C1=CC[C@@H]3[C@@]4(C)C[C@@H](O)[C@H](O)[C@@](C)(CO)[C@@H]4CC[C@@]3(C)[C@]1(C)CC2
3

* * *

Assay: Cytotoxicity against African green monkey Vero cells measured after 48 hrs
Type: cell-based
Details: chlorocebus sabaeus, read-out: TC50
What CC50 at 48 h was measured for each of the following?
A number alone suffices; assume µM.

Look up CC50 at 48 h for this compound: CC1=C2C3=CC[C@@H]4[C@@]5(C)C[C@@H](O)[C@@H](O)[C@@](C)(CO)[C@@H]5CC[C@@]4(C)[C@]3(C)CC[C@@]23CC[C@]1(C)OO3
23.1

Look up CC50 at 48 h for this compound: CC1=C2C3=CC[C@@H]4[C@@]5(C)CC[C@@H](O)[C@@](C)(CO)[C@@H]5CC[C@@]4(C)[C@]3(C)CC[C@@]23CC[C@]1(C)OO3
57.7

Look up CC50 at 48 h for this compound: Cc1ccc2c(c1C)C1=CC[C@@H]3[C@@]4(C)[C@H](O)C[C@@H](O)[C@](C)(CO)[C@@H]4CC[C@@]3(C)[C@]1(C)CC2
11.1

Look up CC50 at 48 h for this compound: Cc1ccc2c(c1C)C1=CC[C@@H]3[C@@]4(C)[C@H](O)[C@@H](O)[C@@H](O)[C@@](C)(CO)[C@@H]4CC[C@@]3(C)[C@]1(C)CC2
1.78

Look up CC50 at 48 h for this compound: Cc1ccc2c(c1C)C1=CC[C@@H]3[C@@]4(C)C[C@@H](O)[C@@H](O)[C@](C)(CO)[C@@H]4CC[C@@]3(C)[C@]1(C)CC2
3.7

Look up CC50 at 48 h for this compound: CC(=O)CCC1=C(C(C)=O)C2=CC[C@@H]3[C@@]4(C)C[C@@H](O)[C@@H](O)[C@](C)(CO)[C@@H]4CC[C@@]3(C)[C@]2(C)CC1
69.3

* * *

Test: Cytotoxicity against MDCK cells measured after 48 hrs
Format: cell-based, Canis lupus familiaris
Conditions: dog, read-out: TC50
Hi! Could you tag entries with CC50 at 48 h below 20 µM as t, and those at or above as f? Much appreciated.

Does the reported CC50 at 48 h of the following molecule sit strictly below 20 µM? Cc1ccc2c(c1C)C1=CC[C@@H]3[C@@]4(C)C[C@@H](O)[C@@H](O)[C@](C)(CO)[C@@H]4CC[C@@]3(C)[C@]1(C)CC2
t

Does the reported CC50 at 48 h of the following molecule sit strictly below 20 µM? Cc1ccc2c(c1C)C1=CC[C@@H]3[C@@]4(C)[C@H](O)[C@@H](O)[C@@H](O)[C@@](C)(CO)[C@@H]4CC[C@@]3(C)[C@]1(C)CC2
t

Does the reported CC50 at 48 h of the following molecule sit strictly below 20 µM? CC(=O)CCC1=C(C(C)=O)C2=CC[C@@H]3[C@@]4(C)C[C@@H](O)[C@@H](O)[C@](C)(CO)[C@@H]4CC[C@@]3(C)[C@]2(C)CC1
f

Does the reported CC50 at 48 h of the following molecule sit strictly below 20 µM? CC1=C2C3=CC[C@@H]4[C@@]5(C)CC[C@@H](O)[C@](C)(CO)[C@@H]5CC[C@@]4(C)[C@]3(C)CC[C@]23CC[C@@]1(C)OO3
t

Does the reported CC50 at 48 h of the following molecule sit strictly below 20 µM? Cc1ccc2c(c1C)C1=CC[C@@H]3[C@@]4(C)[C@H](O)C[C@@H](O)[C@](C)(CO)[C@@H]4CC[C@@]3(C)[C@]1(C)CC2
t

Does the reported CC50 at 48 h of the following molecule sit strictly below 20 µM? CC1=C2C3=CC[C@@H]4[C@@]5(C)CC[C@@H](O)[C@@](C)(CO)[C@@H]5CC[C@@]4(C)[C@]3(C)CC[C@@]23CC[C@]1(C)OO3
t

Does the reported CC50 at 48 h of the following molecule sit strictly below 20 µM? CC1=C2C3=CC[C@@H]4[C@@]5(C)C[C@@H](O)[C@@H](O)[C@@](C)(CO)[C@@H]5CC[C@@]4(C)[C@]3(C)CC[C@@]23CC[C@]1(C)OO3
f

Does the reported CC50 at 48 h of the following molecule sit strictly below 20 µM? Cc1ccc2c(c1C)C1=CC[C@@H]3[C@@]4(C)CC[C@@H](O)[C@](C)(CO)[C@@H]4CC[C@@]3(C)[C@]1(C)CC2
t

Does the reported CC50 at 48 h of the following molecule sit strictly below 20 µM? Cc1ccc2c(c1C)C1=CC[C@@H]3[C@@]4(C)C[C@@H](O)[C@H](O)[C@@](C)(CO)[C@@H]4CC[C@@]3(C)[C@]1(C)CC2
t

* * *

What pIC50 was measured for each of the following?
System: Influenza A virus
Experiment: Antiviral activity against Influenza A virus A/95-359 infected in MDCK cells assessed as inhibition of virus-induced cytopathic effect
Format: functional, organism-based
Conditions: A/95-359, MDCK
pIC50: −log10 of the molar value.

Look up pIC50 for this molecule: CC(=O)CCC1=C(C(C)=O)C2=CC[C@@H]3[C@@]4(C)C[C@@H](O)[C@@H](O)[C@](C)(CO)[C@@H]4CC[C@@]3(C)[C@]2(C)CC1
< 4.48

Look up pIC50 for this molecule: Cc1ccc2c(c1C)C1=CC[C@@H]3[C@@]4(C)[C@H](O)C[C@@H](O)[C@](C)(CO)[C@@H]4CC[C@@]3(C)[C@]1(C)CC2
< 5.43

Look up pIC50 for this molecule: Cc1ccc2c(c1C)C1=CC[C@@H]3[C@@]4(C)[C@H](O)[C@@H](O)[C@@H](O)[C@@](C)(CO)[C@@H]4CC[C@@]3(C)[C@]1(C)CC2
< 5.91

Look up pIC50 for this molecule: CC1=C2C3=CC[C@@H]4[C@@]5(C)CC[C@@H](O)[C@@](C)(CO)[C@@H]5CC[C@@]4(C)[C@]3(C)CC[C@@]23CC[C@]1(C)OO3
< 4.95
